The origin of these recorded values is patent US20140072563A1.

STUDY_TARGET: hErbB3.mmh (soluble monomeric human ErbB3 extracellular domain with C-terminal myc-myc-hexahistidine tag) (human, UniProt P21860 20-642)
Sequence (P21860 other isoform, or with tags, fused parts or gaps): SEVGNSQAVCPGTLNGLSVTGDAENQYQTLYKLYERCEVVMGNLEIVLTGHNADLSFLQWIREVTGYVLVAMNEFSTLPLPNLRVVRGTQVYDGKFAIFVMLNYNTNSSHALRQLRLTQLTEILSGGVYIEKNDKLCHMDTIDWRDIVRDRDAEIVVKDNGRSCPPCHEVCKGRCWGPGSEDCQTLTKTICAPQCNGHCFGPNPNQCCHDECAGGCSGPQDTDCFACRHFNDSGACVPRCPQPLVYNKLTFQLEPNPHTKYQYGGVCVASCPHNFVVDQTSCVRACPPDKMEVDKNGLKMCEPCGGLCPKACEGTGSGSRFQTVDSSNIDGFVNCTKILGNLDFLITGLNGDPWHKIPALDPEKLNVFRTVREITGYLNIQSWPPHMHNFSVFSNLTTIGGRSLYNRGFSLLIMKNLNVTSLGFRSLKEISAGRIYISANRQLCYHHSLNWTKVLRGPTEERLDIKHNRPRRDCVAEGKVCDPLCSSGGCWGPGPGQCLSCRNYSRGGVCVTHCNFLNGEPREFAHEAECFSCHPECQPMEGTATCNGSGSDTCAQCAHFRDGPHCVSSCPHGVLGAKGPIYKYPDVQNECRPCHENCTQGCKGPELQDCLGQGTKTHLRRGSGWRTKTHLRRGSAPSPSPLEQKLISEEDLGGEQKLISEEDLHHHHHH
PROTOCOL_DETAILS: SPR (Biacore), 25 C, mAb capture format
Experimental: (Tables 2-4). Measurements were conducted on a Biacore 2000 or T100 instrument. […] Kinetic association (kₐ) and dissociation (kd) rate constants were determined by processing and fitting the data to a 1:1 binding model using Scrubber 2.0 curve fitting software.
EXPERIMENTAL_READOUT: Kd (pM)
Form entry: value (pM) — number only.

Consider the reported Kd for these binders:
H4H2094P (antibody, V domains shown, Fully human, human IgG4 Fc (H4H prefix)) VH: EVQLVESGGGLVQPGGSLRLSCAASGFTFSSYDMHWVRQATGKGLEWVSAIGPAGDTYYPVSAMGRFTISRDDAKNSLYLQMNSLRAGDTAVYYCAREGVTIRPDDYFGLDVWGQGTTVTVSA VL: DIQLTQSPSFLSASVGDRVTITCWASQGISDYLAWYQKKPGKAPQLLIYAATTLQSGVPSRFSGSGSGTEFTLTISSLQPEDFATYYCQQLNTYPLTFGGGTKVEIKR	7.22
H1M1819N (antibody, V domains shown, Hybridoma chimeric antibody: human variable domains, mouse constant domains (H1M prefix, mouse Fc)) VH: EVQLVESGGGVVRPGGSLRLSCAASGFTFDDYAMHWVRQAPGKGLEWVAGISWNSGSIDYADSVKGRFTISRDNAKNSLYLQMNSLRAGDTALYYCAKDILDLDYYGLDVWGQGTTVTVSS VL: DIQMTQSPSSLSASVGDRVTITCRASQDISSYLAWYQQKPGKVPNLLIYDASSLQSGVPSRFSGSGSGTDFTLTLSSLQPEDFASYYCQNYNSAPYTFGQGTKLEIK	1010
H4H2147P (antibody, V domains shown, Fully human, human IgG4 Fc (H4H prefix)) VH: QVQLVESGGGLVKPGGSLRLSCAASGFTFSDFNMGWIRQAPGKGLEWVSHISGSGNVIYYADSVKGRFAISRDNGKNSLYLQVNSLRAEDTAVYYCARDIGDSDAFDIWGQGTMVTVSS VL: DIQLTQSPSFLSASVGDRVTITCWASQDISSYLAWYQQKPGKAPKLLIYGASTLESGVPSRFSGSGSGTEFTLTISSLQPEDVATYYCQQLNTYPLTFGGGTKVEIKR	43.8

Dear colleague, I am looking for the recorded Kd of the following binder: H4H2143P (antibody, V domains shown, Fully human, human IgG4 Fc (H4H prefix)) VH: EVQLVESGGGLVQPGRSLRLSCAASGFTFGDYAMHWVRQAPGKGLEWVSGINLNSGTIGYADSVKGRFTISRDNAKNSLYLQMNSLRAEDTAFYYCAKDIDGYYHYAMDVWGQGTTVTVSS VL: DVVMTQSPSFLSASVGDRVTITCWASQGISSYLAWYQQKPGKAPKLLIYDASTLESGVPSRFSGSGSGTEFTLTISNLQPEDFATYYCQQVNSYPLTFGGGTKVEIKR 53.1

Dear colleague, I am looking for the recorded Kd of the following binder: H4H2114P (antibody, V domains shown, Fully human, human IgG4 Fc (H4H prefix)) VH: QVQLVESGGGVVQPGRSLRLSCAASGFTFSSYGMHWVRQAPGKGLEWVAGMSYDGSSKYYEDSVKGRFTISRDNSKNTLNLQMNSLRVEDTAVYYCAKERDYVEYVDSYYGMDVWGQGTTVTVSA VL: AIQMTQSPSSLSASVGDRVTITCRASQGIRNDLGWYQQKPGKAPKVLIYAASSLQSGVPSRFSGSGSGTVFTLTISSLQPEDFATYYCLQDYNYPLTFGGGTKVEIKR 106
